FYI, the data here is from patent US20080038276A1.

target: Human plasma kallikrein (PK) (Homo sapiens, UniProt P03952); construct: purchased Haemtech Technologies (Essex Junction, Vt.); assay: Inhibition of human plasma kallikrein amidolytic activity (H-D-Pro-Phe-Arg-pNA cleavage, A405); assay type: biochemical; conditions: apparent inhibition constant; 1 nM PK, pH 7.5; read-out: PK Kiapp
Sequence (P03952 391-638 limits assumed): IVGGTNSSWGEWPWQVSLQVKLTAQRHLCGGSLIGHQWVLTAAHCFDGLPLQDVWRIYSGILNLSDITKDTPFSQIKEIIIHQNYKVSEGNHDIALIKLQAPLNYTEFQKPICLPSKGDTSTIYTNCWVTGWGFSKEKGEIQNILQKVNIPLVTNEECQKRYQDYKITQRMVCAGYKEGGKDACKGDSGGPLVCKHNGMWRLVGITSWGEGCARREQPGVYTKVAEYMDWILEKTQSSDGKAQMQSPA
Sequence (P03952 20-390 partner limits assumed): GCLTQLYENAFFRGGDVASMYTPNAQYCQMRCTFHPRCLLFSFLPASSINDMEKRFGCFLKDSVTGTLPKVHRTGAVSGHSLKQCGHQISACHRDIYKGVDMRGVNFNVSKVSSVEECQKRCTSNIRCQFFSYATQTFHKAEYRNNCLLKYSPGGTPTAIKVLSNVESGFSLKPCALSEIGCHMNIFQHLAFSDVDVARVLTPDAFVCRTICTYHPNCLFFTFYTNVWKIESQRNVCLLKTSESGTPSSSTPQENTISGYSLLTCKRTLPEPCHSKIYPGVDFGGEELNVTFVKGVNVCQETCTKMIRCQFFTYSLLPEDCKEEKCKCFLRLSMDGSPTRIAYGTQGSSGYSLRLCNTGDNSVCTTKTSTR
METRIC: Ki (nM)

N=C(N)c1ccc(CNC(=O)c2cnn(-c3ccccc3)c2)cc1	1430
Cc1c(C(=O)NCc2ccc(C(=N)N)cc2)nnn1Cc1ccc(Br)cc1	2620
N=C(N)c1ccc(CNC(=O)c2cc3ccccc3[nH]2)cc1	2520
N=C(N)c1ccc(CNC(=O)c2ccc(-c3ccccc3)s2)cc1	7660
Cc1cc(C(=O)NCc2ccc(C(=N)N)cc2)c(C)n1Cc1ccccc1	30
N=C(N)c1ccc(CNC(=O)c2cnn(Cc3ccccc3Cl)c2)cc1	470
Cc1cc(C(=O)NCc2ccc(C(=N)N)cc2)c(C)n1CC(F)(F)F	410

(a) N=C(N)c1ccc(CNC(=O)c2cn(Cc3ccc(F)cc3)nn2)cc1
(b) Cc1cc(C(=O)NCc2ccc(C(=N)N)cc2)c(C)n1Cc1ccncc1
Would you let me know which has the greater Ki value, a or b ? Bench note: the answer is the label of the chosen record. a

###

molecular target: Human plasma kallikrein (PK) (Homo sapiens, UniProt P03952); construct: purchased Haemtech Technologies (Essex Junction, Vt.); assay: Inhibition of human plasma kallikrein amidolytic activity (H-D-Pro-Phe-Arg-pNA cleavage, A405); assay type: biochemical; conditions: PK Kiapp, apparent inhibition constant; 1 nM PK, pH 7.5
METRIC: Ki (nM)
Quick reminder: number only, in nM, skip the unit.

Which Ki reading was recorded for the molecule N=C(N)c1ccc(CNC(=O)c2cn(Cc3ccccc3)c3ccccc23)cc1 ? 240

###

target: Thrombin (Homo sapiens, UniProt P00734); assay: Specificity profile: amidolytic activity with synthetic substrate; format: biochemical; settings: highest concentration tested 10 μM
pKi: −log10 of the molar value.
METRIC: pKi

Which pKi reading was recorded for the molecule Cc1cc(C(=O)NCc2ccc(C(=N)N)cc2)c(C)n1Cc1ccncc1 [ASP-465] ? < 5.00

###

target: Human plasma kallikrein (PK) (Homo sapiens, UniProt P03952); construct: purchased Haemtech Technologies (Essex Junction, Vt.); experiment: Inhibition of human plasma kallikrein amidolytic activity (H-D-Pro-Phe-Arg-pNA cleavage, A405); format: biochemical; conditions: purified human PK; highest concentration tested 10 μM; read-out: Ki PK
METRIC: Ki (nM)

(I) N=C(N)c1ccc(CNC(=O)c2cnn(Cc3ccccc3)c2)cc1
(II) Cc1cc(C(=O)NCc2ccc(C(=N)N)cc2)c(C)n1Cc1ccncc1
Would you let me know which has the greater Ki value, I or II ? Bench note: the answer is the label of the chosen record. I
(I: 90 nM, II: 30 nM)

###

biological target: Human plasma kallikrein (PK) (Homo sapiens); construct: purchased Haemtech Technologies (Essex Junction, Vt.); assay: Inhibition of human plasma kallikrein amidolytic activity (H-D-Pro-Phe-Arg-pNA cleavage, A405); format: biochemical; details: apparent inhibition constant; 1 nM PK, pH 7.5; read-out: PK Kiapp
METRIC: Ki (nM)

Here is how some compounds turned out for Ki.
N=C(N)c1ccc(CNC(=O)c2cc3ccccc3o2)cc1 [ASP-485]	870
Cc1oc(-c2ccccc2)cc1C(=O)NCc1ccc(C(=N)N)cc1 [ASP-466]	1290
Cc1nn(Cc2ccccc2Cl)c(C)c1C(=O)NCc1ccc(C(=N)N)cc1 [ASP-578]	1640

(a) N=C(N)c1ccc(CNC(=O)c2ccc(-c3ccccn3)s2)cc1 [ASP-525]
(b) N=C(N)c1ccc(CNC(=O)c2cnn(Cc3ccccc3)c2)cc1 [ASP-440]
Would you let me know which has the greater Ki value, a or b ? Bench note: the answer is the label of the chosen record. a
